# protocol_summary: Compatibility of cationic antibacterial agent with potassium citrate solution
# Format: physicochemical
# condition_info: 20% potassium citrate solution mixed 1:1 with 0.2% agent solution, room temperature, dark, 7 days
# Experimental: Materials to be tested: sodium citrate, potassium citrate, lithium citrate, citric acid, EDTA-2Na. Each of the citric acid metal salts to be tested was prepared as a 20% aqueous solution; the citric acid to be tested was prepared as a 20% aqueous solution; the EDTA-2Na to be tested was prepared as a 10% aqueous solution; and the cationic antibacterial agent to be tested was prepared as a 0.2% aqueous solution. […]
experimental_endpoint: Phenomenon (compatibility with potassium citrate solution)

- molecule: "CCCCCCCCCCCC[N+](C)(C)C.[Cl-] [dodecyl trimethyl ammonium chloride]"
  val: "−"
- molecule: "CCCCCCCCCCCC[N+](C)(C)Cc1ccccc1.[Cl-]"
  val: "−"
- molecule: "N=C(NCCCCCCNC(=N)NC(=N)Nc1ccc(Cl)cc1)NC(=N)Nc1ccc(Cl)cc1.O=C(O)[C@H](O)[C@@H](O)[C@H](O)[C@H](O)CO.O=C(O)[C@H](O)[C@@H](O)[C@H](O)[C@H](O)CO [chlorhexidine gluconate, reference compound]"
  val: "+"
